tested on: LCLC-103H; assay: relative viability (nuclei count vs DMSO), 5 days (fraction); higher = more cells survive; settings: first compound 0.1 µM
Exercise: for every item that follows, state its recorded relative viability.
Give bare numbers.

compound: O=c1cc(N2CCOCC2)oc2c(-c3cccc4c3sc3ccccc34)cccc12 + O=C(CCCCCCC(=O)Nc1ccccc1)NO [Vorinostat] (partner 1 µM)
target_under_test: LCLC-103H
relative viability: 0.826
//
compound: O=c1cc(N2CCOCC2)oc2c(-c3cccc4c3sc3ccccc34)cccc12 + Nc1ncn([C@H]2C[C@H](O)[C@@H](CO)O2)c(=O)n1 [Decitabine] (partner 2 µM)
target_under_test: LCLC-103H
relative viability: 0.766
//
compound: CCN(CC)CCCCNc1ncc2cc(-c3cc(OC)cc(OC)c3)c(NC(=O)NC(C)(C)C)nc2n1 + C[C@@H](Oc1cc(-c2cnn(C3CCNCC3)c2)cnc1N)c1c(Cl)ccc(F)c1Cl [Crizotinib] (partner 1 µM)
target_under_test: LCLC-103H
relative viability: 1.07
//
compound: O=c1cc(N2CCOCC2)oc2c(-c3cccc4c3sc3ccccc34)cccc12 + N=C(N)NC(=N)NCCc1ccccc1 [Phenformin] (partner 250 µM)
target_under_test: LCLC-103H
relative viability: 0.331
//
compound: CCN(CC)CCCCNc1ncc2cc(-c3cc(OC)cc(OC)c3)c(NC(=O)NC(C)(C)C)nc2n1 + O=C(CCCCCCC(=O)Nc1ccccc1)NO [Vorinostat] (partner 1 µM)
target_under_test: LCLC-103H
relative viability: 0.775
//
compound: CCN(CC)CCCCNc1ncc2cc(-c3cc(OC)cc(OC)c3)c(NC(=O)NC(C)(C)C)nc2n1 + NC(=O)Nc1cc(-c2cccc(F)c2)sc1C(=O)N[C@H]1CCCNC1 [AZD7762] (partner 0.2 µM)
target_under_test: LCLC-103H
relative viability: 0.824
//
compound: CCN(CC)CCCCNc1ncc2cc(-c3cc(OC)cc(OC)c3)c(NC(=O)NC(C)(C)C)nc2n1 + Nc1nc2[nH]cc(CCc3ccc(C(=O)N[C@@H](CCC(=O)O)C(=O)O)cc3)c2c(=O)[nH]1 [Pemetrexed] (partner 0.2 µM)
target_under_test: LCLC-103H
relative viability: 0.485
//
compound: CCN(CC)CCCCNc1ncc2cc(-c3cc(OC)cc(OC)c3)c(NC(=O)NC(C)(C)C)nc2n1 + CS(=O)(=O)N1CCN(Cc2cc3nc(-c4cccc5[nH]ncc45)nc(N4CCOCC4)c3s2)CC1 [Pictilisib] (partner 1 µM)
target_under_test: LCLC-103H
relative viability: 0.595
//
compound: O=c1cc(N2CCOCC2)oc2c(-c3cccc4c3sc3ccccc34)cccc12 + CC(=O)c1c(C)c2cnc(Nc3ccc(N4CCNCC4)cn3)nc2n(C2CCCC2)c1=O [Palbociclib] (partner 0.5 µM)
target_under_test: LCLC-103H
relative viability: 0.513

Hello, I am looking for reported relative viability with LCLC-103H for CCN(CC)CCCCNc1ncc2cc(-c3cc(OC)cc(OC)c3)c(NC(=O)NC(C)(C)C)nc2n1 + C[C@]1(O)C[C@@H](c2nc(-c3ccc4ccc(-c5ccccc5)nc4c3)c3c(N)nccn32)C1 [Linsitinib] (partner 1 µM) . Could you help? 1.2

###

test system: NCI-H1944; assay: relative viability (nuclei count vs DMSO), 5 days (fraction); higher = more cells survive; conditions: first compound 0.08 µM
parameter: relative viability
Give bare numbers.

Field: example entries. Status: answers known.
compound: COc1nc(C)cnc1NS(=O)(=O)c1cccnc1-c1ccc(-c2nnco2)cc1 [Zibotentan] + Nc1nc2[nH]cc(CCc3ccc(C(=O)N[C@@H](CCC(=O)O)C(=O)O)cc3)c2c(=O)[nH]1 [Pemetrexed] (partner 0.2 µM)
relative viability: 0.769
//
compound: COc1nc(C)cnc1NS(=O)(=O)c1cccnc1-c1ccc(-c2nnco2)cc1 [Zibotentan] + C[C@]1(O)C[C@@H](c2nc(-c3ccc4ccc(-c5ccccc5)nc4c3)c3c(N)nccn32)C1 [Linsitinib] (partner 1 µM)
relative viability: 1.19
//
compound: O=c1cc(-c2cccc3c2Sc2ccccc2S3)oc(N2CCOCC2)c1 + Nc1nc2[nH]cc(CCc3ccc(C(=O)N[C@@H](CCC(=O)O)C(=O)O)cc3)c2c(=O)[nH]1 [Pemetrexed] (partner 0.2 µM)
relative viability: 0.642

Next compound, relative viability to be filled in.
Param item = COc1nc(C)cnc1NS(=O)(=O)c1cccnc1-c1ccc(-c2nnco2)cc1 [Zibotentan] + Cc1cc(Nc2cc(N3CCN(C)CC3)nc(Sc3ccc(NC(=O)C4CC4)cc3)n2)n[nH]1 [Tozasertib] (partner 0.1 µM) ; retrieve measured relative viability. 0.252

###

system: NCI-H1395; assay: relative viability (nuclei count vs DMSO), 5 days (fraction); higher = more cells survive; settings: first compound 0.08 µM
Answer each item with its documented relative viability.
Give bare numbers.

Please review the entries below; each comes with its answer.
compound: O=c1cc(-c2cccc3c2Sc2ccccc2S3)oc(N2CCOCC2)c1 + CS(=O)(=O)N1CCN(Cc2cc3nc(-c4cccc5[nH]ncc45)nc(N4CCOCC4)c3s2)CC1 [Pictilisib] (partner 1 µM)
target_under_test: NCI-H1395
relative viability: 0.634

compound: COc1nc(C)cnc1NS(=O)(=O)c1cccnc1-c1ccc(-c2nnco2)cc1 [Zibotentan] + N=C(N)NC(=N)NCCc1ccccc1 [Phenformin] (partner 250 µM)
target_under_test: NCI-H1395
relative viability: 0.43

Attention now turns to another entry.
# input compound: O=c1cc(-c2cccc3c2Sc2ccccc2S3)oc(N2CCOCC2)c1 + Nc1ncn([C@H]2C[C@H](O)[C@@H](CO)O2)c(=O)n1 [Decitabine] (partner 2 µM) ; wanted: its relative viability 0.711

###

test system: NCI-H1563; assay: relative viability (nuclei count vs DMSO), 5 days (fraction); higher = more cells survive; conditions: first compound 0.03162 µM
# label = fulfilled if relative viability < 0.6 else not fulfilled

Past entries and their recorded results:
molecule: CCN(CC)CCCCNc1ncc2cc(-c3cc(OC)cc(OC)c3)c(NC(=O)NC(C)(C)C)nc2n1 + C[C@@H](Oc1cc(-c2cnn(C3CCNCC3)c2)cnc1N)c1c(Cl)ccc(F)c1Cl [Crizotinib] (partner 1 µM)
class_name: not fulfilled

molecule: CCN(CC)CCCCNc1ncc2cc(-c3cc(OC)cc(OC)c3)c(NC(=O)NC(C)(C)C)nc2n1 + CCNC(=O)c1noc(-c2cc(C(C)C)c(O)cc2O)c1-c1ccc(CN2CCOCC2)cc1 [Luminespib] (partner 0.01 µM)
class_name: fulfilled

molecule: CCN(CC)CCCCNc1ncc2cc(-c3cc(OC)cc(OC)c3)c(NC(=O)NC(C)(C)C)nc2n1 + N=C(N)NC(=N)NCCc1ccccc1 [Phenformin] (partner 250 µM)
class_name: not fulfilled

molecule: O=c1cc(N2CCOCC2)oc2c(-c3cccc4c3sc3ccccc34)cccc12 + CCNC(=O)c1noc(-c2cc(C(C)C)c(O)cc2O)c1-c1ccc(CN2CCOCC2)cc1 [Luminespib] (partner 0.01 µM)
class_name: fulfilled

For the next question, use this molecule.
In plain terms, does O=c1cc(N2CCOCC2)oc2c(-c3cccc4c3sc3ccccc34)cccc12 + N=C(N)NC(=N)NCCc1ccccc1 [Phenformin] (partner 250 µM) come in under 0.6 for relative viability? not fulfilled

###

test system: NCI-H647; assay: relative viability (nuclei count vs DMSO), 5 days (fraction); higher = more cells survive; conditions: first compound 0.8 µM
Mark 1 only for relative viability values smaller than 0.5; exact matches and larger values are -1.

Worked set:
compound: COc1nc(C)cnc1NS(=O)(=O)c1cccnc1-c1ccc(-c2nnco2)cc1 [Zibotentan] + CC(=O)c1c(C)c2cnc(Nc3ccc(N4CCNCC4)cn3)nc2n(C2CCCC2)c1=O [Palbociclib] (partner 0.5 µM)
class_name: 1
--
compound: COc1nc(C)cnc1NS(=O)(=O)c1cccnc1-c1ccc(-c2nnco2)cc1 [Zibotentan] + CC1(C)CCC(c2ccc(Cl)cc2)=C(CN2CCN(c3ccc(C(=O)NS(=O)(=O)c4ccc(N[C@H](CCN5CCOCC5)CSc5ccccc5)c(S(=O)(=O)C(F)(F)F)c4)cc3)CC2)C1 [Navitoclax] (partner 0.5 µM)
class_name: -1
--
compound: COc1nc(C)cnc1NS(=O)(=O)c1cccnc1-c1ccc(-c2nnco2)cc1 [Zibotentan] + CS(=O)(=O)N1CCN(Cc2cc3nc(-c4cccc5[nH]ncc45)nc(N4CCOCC4)c3s2)CC1 [Pictilisib] (partner 1 µM)
class_name: 1
--
compound: O=c1cc(-c2cccc3c2Sc2ccccc2S3)oc(N2CCOCC2)c1 + NC(=O)Nc1cc(-c2cccc(F)c2)sc1C(=O)N[C@H]1CCCNC1 [AZD7762] (partner 0.2 µM)
class_name: 1
--
compound: O=c1cc(-c2cccc3c2Sc2ccccc2S3)oc(N2CCOCC2)c1 + COc1cccc2cc(-c3nc([C@H]4CC[C@H](C(=O)O)CC4)n4ncnc(N)c34)[nH]c12 [OSI-027] (partner 0.5 µM)
class_name: -1

Does the reported relative viability of the following compound sit strictly below 0.5? COc1nc(C)cnc1NS(=O)(=O)c1cccnc1-c1ccc(-c2nnco2)cc1 [Zibotentan] + COc1cc2c(Oc3ccc(NC(=O)C4(C(=O)Nc5ccc(F)cc5)CC4)cc3F)ccnc2cc1OCCCN1CCOCC1 [Foretinib] (partner 0.25 µM) -1
